MEASURED TARGET: T1, hVISTA-ECD 6-His tag (human, UniProt Q9H7M9 33-193)
T1 construct: also called monovalent hVISTA-ECD; human VISTA
T1 sequence (Q9H7M9 other isoform, or with tags, fused parts or gaps limits assumed): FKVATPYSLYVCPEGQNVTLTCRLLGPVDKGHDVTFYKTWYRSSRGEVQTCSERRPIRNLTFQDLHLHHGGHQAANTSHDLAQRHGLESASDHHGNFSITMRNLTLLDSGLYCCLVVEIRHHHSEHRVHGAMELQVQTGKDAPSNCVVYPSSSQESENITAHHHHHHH
PROTOCOL SUMMARY: SPR; kd at pH 6.45 over kd at pH 6.0 (head prints 7.4)
REPORTED ENDPOINT: 7.4 kd/ 6.0 kd
Respond using a number only.

For reference, reported 7.4 kd/ 6.0 kd for P1-061520 (41F11 VK_A64G) (antibody, V domains shown, also called P1-061520-21; VISTA.4.A64G) VH: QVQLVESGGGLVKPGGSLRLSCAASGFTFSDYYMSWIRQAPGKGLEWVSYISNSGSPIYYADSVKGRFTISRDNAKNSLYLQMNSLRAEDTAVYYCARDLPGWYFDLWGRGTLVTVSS VL: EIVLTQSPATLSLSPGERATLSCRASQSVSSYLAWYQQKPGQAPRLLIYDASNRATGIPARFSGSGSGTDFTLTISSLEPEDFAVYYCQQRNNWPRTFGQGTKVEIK stands at 0.2
